target-of-assay: CDK7/cyclinH/MAT1 trimeric complex (Homo sapiens)
assay-summary: In vitro CDK7 assay, potency of irreversible covalent inhibitors (kinact/KI), coupled PK/LDH ADP readout at 340 nm
recorded-conditions: 20 nM enzyme
Answer each item with its documented CDK7 (20 nM enz.) (kinact/KI, M^−1*s^−1).

[Q] Query: CDK7 (20 nM enz.) (kinact/KI, M^−1*s^−1); subject: C=CC(=O)N1CC[C@H](N2CC(c3cc4c(c(C(F)(F)F)n3)O[C@H](C)c3c(N5CCOCC5)ccnc3N4)C2)C1 (single isomer, unassigned) [Compound 503]
[A] 629.38 M⁻¹ s⁻¹

[Q] Which CDK7 (20 nM enz.) (kinact/KI, M^−1*s^−1) value belongs to C=CC(=O)N1CCC(N2CC(c3cc4c(c(C5CC5)n3)OCc3c(N5CCOCC5)ccnc3N4)C2)CC1 [Compound 341] ?
[A] 655.075 M⁻¹ s⁻¹

[Q] Can you share its CDK7 (20 nM enz.) (kinact/KI, M^−1*s^−1)? I mean this compound: C=CC(=O)N1CC(N2CC(c3cc4c(c(C)n3)O[C@H](C)c3c(N5CCOCC5)ccnc3N4)C2)C1 (single isomer, unassigned)
[A] 1172.91 M⁻¹ s⁻¹

* * *

Assignment: determine reported log10 of Ki for the given molecules.
target-of-assay: CDK7/cyclinH/MAT1 trimeric complex (Homo sapiens, UniProt P50613)
Sequence (P50613 whole entry): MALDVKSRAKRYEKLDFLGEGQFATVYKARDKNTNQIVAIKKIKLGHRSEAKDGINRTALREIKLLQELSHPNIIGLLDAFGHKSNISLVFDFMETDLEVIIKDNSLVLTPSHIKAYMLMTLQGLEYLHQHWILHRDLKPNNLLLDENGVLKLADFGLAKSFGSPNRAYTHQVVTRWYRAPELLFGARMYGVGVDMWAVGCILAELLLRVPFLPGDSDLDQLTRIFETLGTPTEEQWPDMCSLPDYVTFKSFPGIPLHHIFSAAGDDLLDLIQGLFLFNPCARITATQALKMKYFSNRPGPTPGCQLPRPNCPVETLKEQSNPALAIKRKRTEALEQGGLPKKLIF
Sequence (P51946 whole entry partner): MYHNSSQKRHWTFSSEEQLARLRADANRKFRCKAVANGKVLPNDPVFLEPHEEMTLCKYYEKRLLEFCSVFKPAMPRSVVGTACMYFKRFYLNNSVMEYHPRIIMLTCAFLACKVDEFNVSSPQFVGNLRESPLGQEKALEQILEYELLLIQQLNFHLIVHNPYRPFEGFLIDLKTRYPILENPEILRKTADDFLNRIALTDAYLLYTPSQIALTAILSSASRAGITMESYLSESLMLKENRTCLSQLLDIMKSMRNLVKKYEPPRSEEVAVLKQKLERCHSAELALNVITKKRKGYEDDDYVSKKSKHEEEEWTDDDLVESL
Sequence (P51948 whole entry partner): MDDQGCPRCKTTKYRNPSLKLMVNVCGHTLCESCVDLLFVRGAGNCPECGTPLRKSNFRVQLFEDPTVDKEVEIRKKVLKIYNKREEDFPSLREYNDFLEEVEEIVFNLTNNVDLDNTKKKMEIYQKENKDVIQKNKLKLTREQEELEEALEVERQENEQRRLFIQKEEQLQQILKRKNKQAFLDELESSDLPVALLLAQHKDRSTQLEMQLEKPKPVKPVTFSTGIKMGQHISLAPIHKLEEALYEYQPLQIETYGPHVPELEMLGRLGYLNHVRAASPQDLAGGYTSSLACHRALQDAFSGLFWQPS
assay-summary: In vitro CDK7 assay, potency of irreversible covalent inhibitors (kinact/KI), coupled PK/LDH ADP readout at 340 nm
recorded-conditions: CDK7 (20 nM enz.) (KI, μM), 20 nM enzyme
Values below are the log10 of the recorded Ki, with µM as the unit.

[Q] Return log10 of Ki measured with CDK7/cyclinH/MAT1 trimeric complex (Homo sapiens, UniProt P50613) given this molecule: C#CCCN(C)C/C=C/C(=O)N1CC(N2CCC(c3ccc4c(c3)Nc3nccc(N5CCOCC5)c3C(C)O4)CC2)C1 (racemic) [Compound 143]
[A] -1.39

[Q] Recorded log10 of Ki for C=CC(=O)N1CC(N2CCC(c3cc4c(c(C5CC5)n3)OCc3c(N5CCOCC5)ccnc3N4)CC2)C1 with CDK7/cyclinH/MAT1 trimeric complex (Homo sapiens, UniProt P50613), please?
[A] -1.67

[Q] // fetch CDK7/cyclinH/MAT1 trimeric complex (Homo sapiens, UniProt P50613) log10 of Ki for C=CC(=O)N1CC(N2CCC(c3ccc4c(c3)Nc3nccc(N5CCOCC5)c3CO4)CC2)C1 [Compound 107]
[A] -1.25

[Q] Test system CDK7/cyclinH/MAT1 trimeric complex (Homo sapiens, UniProt P50613); read-out log10 of Ki; what value for CC#CC(=O)N1CC(N2CC[C@@H](c3cc4c(c(C)n3)O[C@H](C)c3c(N5CCOCC5)ccnc3N4)C2)C1 (single isomer, unassigned) ?
[A] -0.36

[Q] Param readout= log10 of Ki; system= CDK7/cyclinH/MAT1 trimeric complex (Homo sapiens, UniProt P50613); entry= CC#CC(=O)N1CCN(C2CN(c3cc4c(c(C)n3)OCc3c(N5CCOCC5)ccnc3N4)C2)CC1 ; returns value.
[A] -0.50

[Q] Record lookup: for CDK7/cyclinH/MAT1 trimeric complex (Homo sapiens, UniProt P50613), what log10 of Ki belongs to C=CC(=O)N1CC(N2CC[C@@H](c3ccc4c(c3)Nc3nccc(N5CCOCC5)c3CO4)[C@H](O)C2)C1 (racemic) [Compound 216] ?
[A] -0.33

[Q] Reported log10 of Ki for CDK7/cyclinH/MAT1 trimeric complex (Homo sapiens, UniProt P50613), given CC#CC(=O)N1CCC(N2CC(c3cc4c(c(C)n3)OCc3c(N5CCOCC5)ccnc3N4)C2)CC1 ?
[A] -1.33

[Q] Value wanted: log10 of Ki (CDK7/cyclinH/MAT1 trimeric complex (Homo sapiens, UniProt P50613)) of entry C=CC(=O)N1CC[C@@H](N2CC(c3cc4c(c(C)n3)OCc3c(N5CCOCC5)ccnc3N4)C2)C1 (single isomer, unassigned)
[A] -1.22

[Q] Requested read-out log10 of Ki, target or system CDK7/cyclinH/MAT1 trimeric complex (Homo sapiens, UniProt P50613), entry C=CC(=O)N1CC(N2CC[C@@H](c3cc4c(c(C)n3)O[C@H](C)c3c(N5CCOCC5)ccnc3N4)C2)C1 (single isomer, unassigned) [Compound 245]
[A] -1.25

* * *

target-of-assay: CDK7/cyclinH/MAT1 trimeric complex (Homo sapiens, UniProt P50613)
assay-summary: In vitro CDK7 assay, potency of irreversible covalent inhibitors (kinact/KI), coupled PK/LDH ADP readout at 340 nm
recorded-conditions: read-out: CDK7 (20 nM enz.) (kinact/KI, M^−1*s^−1), 20 nM enzyme
Consider the following compounds; for each one, report its kinact/KI.
Answer format: numeric, M⁻¹ s⁻¹ implied, no suffix.

[Q] Record request: kinact/KI value, item CC#CC(=O)N1CCC(N2CC(c3cc4c(c(C(F)(F)F)n3)O[C@H](C)c3c(N5CCOCC5)ccnc3N4)C2)CC1 (single isomer, unassigned)
[A] 246

[Q] // query kinact/KI value for entry C=CC(=O)N1CC[C@@H](N2CC(c3cc(C)c4c(c3)Nc3nccc(-c5cnn(C)c5)c3CO4)C2)[C@H](F)C1 (mixture of isomers)
[A] 802

[Q] Query: kinact/KI; subject: C=CC(=O)N1CC(N2CCN(c3cc4c(cn3)OCc3c(N5CCOCC5)ccnc3N4)CC2)C1
[A] 277

* * *

Please provide measured kinact for the entries that follow.
target-of-assay: CDK7/cyclinH/MAT1 trimeric complex (Homo sapiens)
assay-summary: In vitro CDK7 assay, potency of irreversible covalent inhibitors (kinact/KI), coupled PK/LDH ADP readout at 340 nm
recorded-conditions: read-out: CDK7 (20 nM enz.) (kinact, s^−1), 20 nM enzyme
Please respond with the number in s⁻¹ and leave the unit unwritten.

[Q] Form field: kinact recorded for C=CC(=O)N1CC[C@H](N2CC(c3cc4c(c(C)n3)OCc3c(N5CCOCC5)ccnc3N4)C2)[C@H](F)C1 with CDK7/cyclinH/MAT1 trimeric complex (Homo sapiens) (enter value)
[A] 6.24e-05

[Q] Short answer please: kinact, CDK7/cyclinH/MAT1 trimeric complex (Homo sapiens), entry C=CC(=O)N1CC(N2CC[C@@H](c3ccc4c(c3)Nc3nccc(N5CCOCC5)c3CO4)[C@H](O)C2)C1 (racemic) [Compound 216]
[A] 6.66e-05

[Q] API: value(readout= kinact, system= CDK7/cyclinH/MAT1 trimeric complex (Homo sapiens), query= CC#CC(=O)N1CC[C@H](N2CC(c3cc4c(c(C5CC5)n3)O[C@H](C)c3c(N5CCOCC5)ccnc3N4)C2)C1 (single isomer, unassigned) )
[A] 3.28e-05

[Q] Request - read-out kinact | tested on CDK7/cyclinH/MAT1 trimeric complex (Homo sapiens) | compound C=CC(=O)N1CC(N2CC(c3ccc4c(c3)Nc3nccc(C5CCOCC5)c3CO4)C2)C1
[A] 5.4e-05

[Q] Fill in the recorded kinact for this compound, with CDK7/cyclinH/MAT1 trimeric complex (Homo sapiens) as test system: C=CC(=O)N1CC(N2CCC(c3ccc4c(c3)Nc3nccc(-c5cnn(C)c5)c3[C@H](C)O4)CC2)C1 (single isomer, unassigned) [Compound 232]
[A] 0.000115

[Q] Missing value: kinact, CDK7/cyclinH/MAT1 trimeric complex (Homo sapiens), entry CC#CC(=O)N1CC[C@@H](N2CCC(c3cc4c(c(C)n3)OCc3c(-c5cnn(C)c5)ccnc3N4)CC2)C1 (single isomer, unassigned) . Fill in?
[A] 5.9e-05

[Q] Which measured kinact belongs to C=CC(=O)N1CC[C@H](N2CC(c3cc4c(c(C(F)(F)F)n3)O[C@H](C)c3c(N5CCOCC5)ccnc3N4)C2)C1 (single isomer, unassigned) , tested on CDK7/cyclinH/MAT1 trimeric complex (Homo sapiens)?
[A] 3.59e-05

[Q] # value lookup — system CDK7/cyclinH/MAT1 trimeric complex (Homo sapiens), readout kinact, item C=CC(=O)N1CCC(N2CC(c3cc(F)c4c(c3)Nc3nccc(N5CCOCC5)c3CO4)C2)CC1
[A] 4.42e-05

[Q] Given the entry C=CC(=O)N1CC(N2CCC(c3cc4c(cc3C#N)OCc3c(N5CCOCC5)ccnc3N4)CC2)C1 , what kinact was observed with CDK7/cyclinH/MAT1 trimeric complex (Homo sapiens)?
[A] 5.74e-05

[Q] Query kinact on CDK7/cyclinH/MAT1 trimeric complex (Homo sapiens) for C#CCOc1cc(C(=O)Nc2ccc3c(c2)Nc2nccc(C4CCOCC4)c2CO3)ccc1NC(=O)C=C
[A] 5.8e-05

[Q] Request - read-out kinact | tested on CDK7/cyclinH/MAT1 trimeric complex (Homo sapiens) | compound C#CCCN(C)C/C=C/C(=O)N1CC(N2CCC(c3ccc4c(c3)Nc3nccc(N5CCOCC5)c3C(C)O4)CC2)C1 (stereo not shown) [Compound 146]
[A] 5.53e-05

[Q] Recorded kinact for C=C(C(=O)N1CC(N2CCC(c3cc4c(c(C)n3)O[C@H](C)c3c(N5CCOCC5)ccnc3N4)CC2)C1)n1cccn1 (single isomer, unassigned) with CDK7/cyclinH/MAT1 trimeric complex (Homo sapiens), please?
[A] 2.61e-05

[Q] Can you look up kinact on CDK7/cyclinH/MAT1 trimeric complex (Homo sapiens) for C=CC(=O)N1CCC(N2CCN(c3cc4c(c(C)n3)OCc3c(N5CCOCC5)ccnc3N4)CC2)CC1 ?
[A] 2.13e-05

[Q] Request: kinact, test system CDK7/cyclinH/MAT1 trimeric complex (Homo sapiens), entry CC#CC(=O)N1CCC(N2CC(c3cc4c(c(C5CC5)n3)OCc3c(N5CCOCC5)ccnc3N4)C2)CC1
[A] 1.86e-05

[Q] For the record C=CC(=O)N1CC(N2CCC(c3ccc4c(c3)Nc3nccc(C5CCOCC5)c3[C@H](C)O4)CC2)C1 (single isomer, unassigned) [Compound 104] , what value of kinact is listed for CDK7/cyclinH/MAT1 trimeric complex (Homo sapiens)?
[A] 4.85e-05

[Q] Given the entry CC#CC(=O)N1CCC(N2CC(c3cc4c(c(C)n3)OCc3c(N5CCOCC5)ccnc3N4)C2)CC1 , what kinact was observed with CDK7/cyclinH/MAT1 trimeric complex (Homo sapiens)?
[A] 2.02e-05
